recorded_endpoint: melting point

For the compound shown here, "Cc1ccc(Cc2nc3c(c(C(C)C)nn3-c3c(Cl)cc(Cl)cc3Cl)c(=O)[nH]2)cc1" , give the reported melting point.
205 to 206 °C

Similarly, "COc1cccc(Cc2nc3c(c(CO)nn3-c3c(Cl)cc(Cl)cc3Cl)c(=O)[nH]2)c1" ?
227 to 229 °C

Similarly, "COc1cccc(Cc2nc3n(-c4c(Cl)cc(Cl)cc4Cl)[nH]c(SC)c-3c(=O)n2)c1" ?
245 to 248 °C

Similarly, "CC(C)c1nn(-c2c(Cl)cc(Cl)cc2Cl)c2nc(Cc3ccc(Br)cc3)[nH]c(=O)c12" ?
229 to 230 °C

Similarly, "COc1cccc(Cc2nc3c(c(C(C)C)nn3-c3c(Cl)cc(S(N)(=O)=O)cc3Cl)c(=O)[nH]2)c1" ?
244 to 245 °C

Similarly, "CSc1nn(-c2c(C)cccc2Cl)c2nc(Cc3ccc(O)cc3)[nH]c(=O)c12" ?
264 to 266 °C

Similarly, "CCc1nn(-c2ccccc2Br)c2nc(Cc3ccc(N)cc3)[nH]c(=O)c12" ?
246 to 249 °C

Similarly, "COc1ccc(Cc2nc3c(c(SC)nn3-c3c(Cl)cc(Br)cc3Cl)c(=O)[nH]2)cc1" ?
267 to 268 °C
